# TARGET_SYSTEM: ErbB2 with Exon 20 YVMA insertion (HER2-YVMA) (Homo sapiens (Human), UniProt P04626, INS775YVMA)
# Sequence (P04626 other isoform, or with tags, fused parts or gaps ins YVMA behind 775): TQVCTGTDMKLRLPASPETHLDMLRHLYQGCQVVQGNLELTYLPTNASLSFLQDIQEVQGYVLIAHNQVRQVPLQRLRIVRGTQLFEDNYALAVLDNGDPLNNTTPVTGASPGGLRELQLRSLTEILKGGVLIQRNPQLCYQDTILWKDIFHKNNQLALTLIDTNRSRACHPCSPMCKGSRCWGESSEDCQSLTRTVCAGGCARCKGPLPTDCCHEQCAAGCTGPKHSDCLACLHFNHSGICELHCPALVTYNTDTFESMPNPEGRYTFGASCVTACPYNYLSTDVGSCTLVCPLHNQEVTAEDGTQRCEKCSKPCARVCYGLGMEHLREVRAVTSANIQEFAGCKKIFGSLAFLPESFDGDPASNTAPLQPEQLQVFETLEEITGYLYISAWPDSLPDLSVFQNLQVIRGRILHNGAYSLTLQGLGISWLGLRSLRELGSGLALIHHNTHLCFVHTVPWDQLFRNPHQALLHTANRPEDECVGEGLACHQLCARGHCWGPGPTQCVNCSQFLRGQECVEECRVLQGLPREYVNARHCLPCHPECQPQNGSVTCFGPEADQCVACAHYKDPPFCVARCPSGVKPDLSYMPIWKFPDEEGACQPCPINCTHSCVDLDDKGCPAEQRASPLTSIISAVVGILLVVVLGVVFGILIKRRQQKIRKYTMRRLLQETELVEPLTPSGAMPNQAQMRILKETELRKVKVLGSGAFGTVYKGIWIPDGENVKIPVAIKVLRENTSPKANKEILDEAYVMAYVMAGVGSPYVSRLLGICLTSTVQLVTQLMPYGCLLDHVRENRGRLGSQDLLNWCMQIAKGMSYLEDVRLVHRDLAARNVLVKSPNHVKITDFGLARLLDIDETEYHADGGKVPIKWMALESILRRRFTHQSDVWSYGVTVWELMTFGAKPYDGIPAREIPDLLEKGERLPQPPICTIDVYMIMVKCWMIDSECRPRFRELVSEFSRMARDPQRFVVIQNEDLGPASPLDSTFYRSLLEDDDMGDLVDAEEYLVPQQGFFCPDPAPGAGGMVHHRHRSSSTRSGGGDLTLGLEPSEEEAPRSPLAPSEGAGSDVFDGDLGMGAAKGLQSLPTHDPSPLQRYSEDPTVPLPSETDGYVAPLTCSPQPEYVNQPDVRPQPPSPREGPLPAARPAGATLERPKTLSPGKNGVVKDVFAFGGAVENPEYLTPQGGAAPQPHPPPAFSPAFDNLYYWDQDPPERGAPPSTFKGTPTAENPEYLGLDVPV
# ASSAY: Cellular Phosphorylation Assay, Assay 4 (constitutive ErbB2 phosphorylation, NIH 3T3 cells)
# Format: cell-based
# EXPERIMENTAL_CONDITIONS: cellular ErbB2 YVMA phosphorylation
# IC50 per entry

| STRUCTURE_STRING | UNIT_INFO | IC50 |
| --- | --- | --- |
| C=CC(=O)N1[C@H](C)CN(c2ccc3ncnc(Nc4ccc(Oc5ccc6c(c5)ncn6C)c(C)c4F)c3n2)C[C@H]1C | nM | 172 |
| C=CC(=O)N(C)[C@@H]1CCN(c2ccc3ncnc(Nc4cc(C)c(Oc5ccn6ncnc6c5)cc4F)c3n2)C1 | nM | 96 |
| C=CC(=O)N1[C@@H]2CCC[C@H]1[C@@H](c1ccc3ncnc(Nc4ccc(Oc5ccn6ncnc6c5)c(C)c4F)c3n1)C2 | nM | 32 |

###

# TARGET_SYSTEM: EGFR wild type (EGFR WT) (Homo sapiens (Human), UniProt P00533)
# Sequence (P00533 25-1210): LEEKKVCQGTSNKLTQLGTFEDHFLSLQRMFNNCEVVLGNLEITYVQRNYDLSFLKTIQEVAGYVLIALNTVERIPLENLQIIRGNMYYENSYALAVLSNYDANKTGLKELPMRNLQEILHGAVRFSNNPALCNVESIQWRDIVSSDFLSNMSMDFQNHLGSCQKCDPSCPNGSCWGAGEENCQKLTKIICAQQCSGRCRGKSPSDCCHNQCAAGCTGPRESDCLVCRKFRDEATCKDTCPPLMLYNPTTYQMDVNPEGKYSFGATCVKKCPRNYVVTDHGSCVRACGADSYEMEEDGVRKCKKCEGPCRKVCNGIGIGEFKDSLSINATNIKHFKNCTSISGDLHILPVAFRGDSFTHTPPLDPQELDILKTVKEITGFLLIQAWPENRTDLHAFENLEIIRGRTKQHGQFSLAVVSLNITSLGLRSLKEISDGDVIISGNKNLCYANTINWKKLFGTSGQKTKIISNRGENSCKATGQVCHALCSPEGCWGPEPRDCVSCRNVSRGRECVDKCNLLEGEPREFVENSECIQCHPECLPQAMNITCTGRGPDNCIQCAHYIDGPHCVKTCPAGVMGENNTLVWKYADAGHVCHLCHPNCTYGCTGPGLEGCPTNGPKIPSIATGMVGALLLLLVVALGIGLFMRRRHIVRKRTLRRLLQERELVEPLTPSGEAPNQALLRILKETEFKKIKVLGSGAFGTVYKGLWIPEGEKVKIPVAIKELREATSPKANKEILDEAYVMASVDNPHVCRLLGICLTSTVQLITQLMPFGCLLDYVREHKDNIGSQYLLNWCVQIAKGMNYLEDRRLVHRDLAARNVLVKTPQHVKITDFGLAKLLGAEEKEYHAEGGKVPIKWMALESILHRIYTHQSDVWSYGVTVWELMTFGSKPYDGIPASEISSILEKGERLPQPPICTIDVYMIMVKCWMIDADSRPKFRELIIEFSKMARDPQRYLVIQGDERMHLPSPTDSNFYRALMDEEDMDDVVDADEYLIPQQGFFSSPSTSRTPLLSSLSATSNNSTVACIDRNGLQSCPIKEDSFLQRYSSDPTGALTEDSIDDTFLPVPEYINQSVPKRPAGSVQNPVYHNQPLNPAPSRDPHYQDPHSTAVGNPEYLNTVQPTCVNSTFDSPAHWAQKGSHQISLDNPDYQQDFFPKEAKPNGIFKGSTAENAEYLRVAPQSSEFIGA
# ASSAY: Cellular Phosphorylation Assay, Assay 5 (EGF-stimulated EGFR phosphorylation, NIH 3T3 cells)
# Assay type: cell-based
# EXPERIMENTAL_CONDITIONS: EGF-stimulated EGFR WT phosphorylation
pIC50: −log10 of the molar value.
# cutoff 6 applies to pIC50; >= gives rule met, < gives rule not met

| COMPOUND | GROUP_LABEL |
| --- | --- |
| C=CC(=O)N1CCC(Oc2ccc3ncnc(Nc4ccc(Oc5ccc6cn(C)nc6c5)c(C)c4)c3n2)CC1 [Example 3] | rule not met |
| C=CC(=O)N1CCN(c2ccc3ncnc(Nc4cc(Cl)c(Oc5ccc6c(c5)ncn6C)cc4F)c3n2)CC1(C)C [Example 76] | rule not met |
| CC#CC(=O)N1C2CCC1CN(c1ccc3ncnc(Nc4ccc(Oc5ccn6ncnc6c5)c(C)c4F)c3n1)C2 [Example 240] | rule not met |
| C=CC(=O)N1CCCCC(c2ccc3ncnc(Nc4ccc(Oc5ccn6ncnc6c5)c(C)c4)c3n2)C1 (centres unmarked) [Example 204] | rule not met |
| C=CC(=O)N1CC[C@H]2C[C@H](c3ccc4ncnc(Nc5cc(C)c(Oc6ccn7ncnc7c6)cc5F)c4n3)C[C@H]21 (racemic) [Example 205] | rule not met |
| CC#CC(=O)N1CC[C@@H]2C[C@H]1CN2c1ccc2ncnc(Nc3ccc(Oc4ccn5ncnc5c4)c(C)c3F)c2n1 [Example 176] | rule not met |
| C=CC(=O)N1C2COCC1CC(c1ccc3ncnc(Nc4ccc(Oc5ccc6c(c5)ncn6C)c(C)c4F)c3n1)C2 (centres unmarked) [Example 161] | rule met |
| C=CC(=O)N1CC[C@@H]2CN(c3ccc4ncnc(Nc5ccc(Oc6ccc7c(c6)ncn7C)c(C)c5)c4n3)C[C@@H]21 [Example 111] | rule not met |
| C=CC(=O)N1CC[C@@H]2[C@H](c3ccc4ncnc(Nc5cc(C)c(Oc6ccc7c(c6)ncn7C)cc5F)c4n3)CC[C@@H]21 (racemic) [Example 134] | rule not met |
| C=CC(=O)N1CCN(c2ccc3ncnc(Nc4cc(C)c(Oc5ccn6ncnc6c5)cc4F)c3n2)CC1 [Example 79] | rule not met |
| C=CC(=O)N1CCN(c2ccc3ncnc(Nc4cc(Cl)c(Oc5ccn6ncnc6c5)cc4F)c3n2)CC1 [Example 81] | rule not met |
| C=CC(=O)N1CC[C@@H]2C[C@H]1CN2c1ccc2ncnc(Nc3cc(C)c(Oc4ccc5c(c4)ncn5C)cc3F)c2n1 [Example 66] | rule met |
| C=CC(=O)N1C[C@H]2C[C@H](c3ccc4ncnc(Nc5ccc(Oc6ccn7ncnc7c6)c(C)c5F)c4n3)C[C@H]2C1 [Example 200] | rule not met |
| C=CC(=O)N1CCN(c2nc3c(Nc4ccc(Oc5ccc6cn(C)nc6c5)c(C)c4)ncnc3cc2OC)CC1 [Example 158] | rule met |

Each recorded value in this set is attributed to patent US12447153B2.
